Reported pIC50 by item:
system: 439559-082-T-J2-PDC spheroid viability; assay: Anticancer human tumor 439559-082-T-J2-PDC patient-derived colon adenocarcinoma cell line growth inhibition [POLQ]; conditions: curve of first compound; second compound 3.16 µM; spheroids with HUVEC and MSC
pIC50: −log10 of the molar value.

Examples from the recorded data:
compound	tested.system	measurement.kind	measured.value
Cn1ncnc1[C@H]1c2n[nH]c(=O)c3cc(F)cc(c23)N[C@@H]1c1ccc(F)cc1 + Cc1cccc(N(C)C(=O)C2C(O)CCN2c2nc(C)cc(C(F)(F)F)c2C#N)c1	439559-082-T-J2-PDC spheroid viability	pIC50	< 7.00
Nc1ccn(C2OC(CO)C(O)C2(F)F)c(=O)n1 (stereo not drawn) + Nc1ccc(C#CCN(C(=O)Cc2ncc(C(F)(F)F)cc2C(F)(F)F)c2ccc(F)cc2)nn1	439559-082-T-J2-PDC spheroid viability	pIC50	6.21

Which pIC50 value is on record for COc1cc(C2c3cc4c(cc3C(OC3OC5COC(C)OC5C(O)C3O)C3COC(=O)C23)OCO4)cc(OC)c1O (stereo not drawn) + Cc1cccc(N(C)C(=O)C2C(O)CCN2c2nc(C)cc(C(F)(F)F)c2C#N)c1 ?
< 5.00

====

tested on: 439559-082-T-J2-PDC spheroid viability; assay: Anticancer human tumor 439559-082-T-J2-PDC cell line growth inhibition [POLQ]; conditions: second compound 1 µM; first compound 3.16 µM; stronger effect = lower value; spheroids with HUVEC and MSC;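 note: spheroids exposed to compounds for seven days before readout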;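 for viability, T/C: 100% = DMSO vehicle control viability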
// assign True if viability, T/C falls strictly below 90%, else False (ties count as False)

Example cases with answers are listed next.
molecule	category
COc1ccc([C@@H](O)c2cc(-c3ncnc4cc(N5CCOCC5)ccc34)c(F)cc2Cl)nn1 + Cc1cccc(N(C)C(=O)C2C(O)CCN2c2nc(C)cc(C(F)(F)F)c2C#N)c1	True
CC1COCCN1c1cc(-c2ccnn2C)c2ccnc(-c3ccn[nH]3)c2n1 (stereo not given) + Cc1cccc(N(C)C(=O)C2C(O)CCN2c2nc(C)cc(C(F)(F)F)c2C#N)c1	True
COc1cc(C2c3cc4c(cc3C(OC3OC5COC(C)OC5C(O)C3O)C3COC(=O)C23)OCO4)cc(OC)c1O (stereo not given) + Cc1cccc(N(C)C(=O)C2C(O)CCN2c2nc(C)cc(C(F)(F)F)c2C#N)c1	True

Kindly review the next molecule as well.
I wonder whether O=C(Nc1ccc(O)c(NS(=O)(=O)c2ccc(F)cc2)c1)c1ccc(-c2ccccc2)cc1 + Nc1ccc(C#CCN(C(=O)Cc2ncc(C(F)(F)F)cc2C(F)(F)F)c2ccc(F)cc2)nn1 has viability, T/C below 90%. Can you tell?
False

====

Reported viability, T/C by item:
test system: 439559-082-T-J2-PDC spheroid viability; experiment: Anticancer human tumor 439559-082-T-J2-PDC cell line growth inhibition [POLQ]; settings: second compound 0.0316 µM; first compound 0.00316 µM; stronger effect = lower value; spheroids with HUVEC and MSC;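 note: spheroids exposed to compounds for seven days before readout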;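 for viability, T/C: 100% = DMSO vehicle control viability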
Could you give me the number in %? Just the number is fine.

compound	value.unit	measured.value
CC[C@@]1(O)C(=O)OCc2c1cc1n(c2=O)Cc2cc3c(CN(C)C)c(O)ccc3nc2-1 + COC1C(OC(N)=O)C(O)C(Oc2ccc3c(O)c(NC(=O)c4ccc(O)c(CC=C(C)C)c4)c(=O)oc3c2C)OC1(C)C	%	92.3
CCc1c2c(nc3ccc(O)cc13)-c1cc3c(c(=O)n1C2)COC(=O)[C@]3(O)CC + COC1C(OC(N)=O)C(O)C(Oc2ccc3c(O)c(NC(=O)c4ccc(O)c(CC=C(C)C)c4)c(=O)oc3c2C)OC1(C)C	%	90.4

Which viability, T/C value is on record for CCc1c2c(nc3ccc(O)cc13)-c1cc3c(c(=O)n1C2)COC(=O)[C@]3(O)CC + Cc1cccc(N(C)C(=O)C2C(O)CCN2c2nc(C)cc(C(F)(F)F)c2C#N)c1 ?
92.9

Which viability, T/C value is on record for Cn1ncnc1[C@H]1c2n[nH]c(=O)c3cc(F)cc(c23)N[C@@H]1c1ccc(F)cc1 + Nc1ccc(C#CCN(C(=O)Cc2ncc(C(F)(F)F)cc2C(F)(F)F)c2ccc(F)cc2)nn1 ?
89.9

Which viability, T/C value is on record for C=CCn1c(=O)c2cnc(Nc3ccc(N4CCN(C)CC4)cc3)nc2n1-c1cccc(C(C)(C)O)n1 + COC1C(OC(N)=O)C(O)C(Oc2ccc3c(O)c(NC(=O)c4ccc(O)c(CC=C(C)C)c4)c(=O)oc3c2C)OC1(C)C ?
98.7
